Measured growth accompanies every entry in the list below.
- Tested on: CAKI-1 renal
- ASSAY: NCI-60 one-dose screen, 48 h (100 = growth as untreated, 0 = no growth, -100 = all killed)
- CONDITION SET: 10 µM unless noted
The panel holds about 83,000 compounds, 20% with a hit somewhere; the sample as a whole holds those more often.
PROPERTY LABEL: growth (%)

input_smiles=CNCCNc1nc2ccccc2c2c(=O)c3cc(OC)ccc3sc12 property_label=growth readout_number=48
input_smiles=CCOC(=O)c1cc2c(n1Cc1cccc(OC)c1)-c1oncc1CCC2 property_label=growth readout_number=29.6
input_smiles=c1ccc2c(c1)oc1cc3sccc3nc12 property_label=growth readout_number=78
input_smiles=COc1ccc(N(C)c2nc(N)nc3sc4c(c23)CCCC4)cc1 property_label=growth readout_number=25.6
input_smiles=CCCCc1ccc(NS(=O)(=O)c2cc3c4c(c2)CCN4C(=O)CC3)cc1 property_label=growth readout_number=9.87
